procedure.summary: Light generation from compounds following incubation with hydrogen peroxide in different pH solutions (D-cysteine conversion, LDR)
Assay type: biochemical
run.parameters: pH 8.8 TRIS buffer, With H2O2 (25 μl of 40 μM added), 60 minutes
measured.parameter: averaged RLUs (bioluminescence)

Worked cases, answers included:
CC1(C)OB(c2ccc(COc3ccc4nc(C#N)sc4c3)c3ccccc23)OC1(C)C : 1,563,422 RLU
CC1(C)OB(c2ccc(COc3ccc4nc(C#N)sc4c3)cc2F)OC1(C)C : 2,854,279 RLU

Recorded result, N#Cc1nc2ccc(OCc3ccc(B(O)O)c(Cl)c3)cc2s1 , averaged RLUs (bioluminescence): 1,525,058 RLU

The value of averaged RLUs (bioluminescence) measured for the molecule N#Cc1nc2ccc(OCc3ccc(B(O)O)cc3)cc2s1 turned out to be 2,790,924 RLU

Sample O=C(O)C1CSC(c2nc3ccc(OCc4ccc(B(O)O)cc4)cc3s2)=N1 (stereo not drawn) ; averaged RLUs (bioluminescence) observed: 2,499,869 RLU

For this molecule ( CC1(C)OB(c2ccc(COc3ccc4nc(C#N)sc4c3)cc2)OC1(C)C ), measured averaged RLUs (bioluminescence) is 5,175,361 RLU

# credit: patent US8937183B2
